Conditions: in water, 313.2 K
value-kind: solubility (mole fraction)
Give bare numbers.

QUERY: Name the recorded solubility (mole fraction) for CC[C@H](C)[C@H]1O[C@]2(CC[C@@H]1C)C[C@@H]1C[C@@H](C/C=C(\C)[C@@H](O[C@H]3C[C@H](OC)[C@@H](O[C@H]4C[C@H](OC)[C@@H](O)[C@H](C)O4)[C@H](C)O3)[C@@H](C)/C=C/C=C3\CO[C@@H]4[C@H](O)C(C)=C[C@@H](C(=O)O1)[C@]34O)O2 .
RESULT: 6.9e-06

---

Conditions: in n-propanol, 308.2 K
value-kind: solubility (mole fraction)
Answers are plain numbers.

QUERY: Name the recorded solubility (mole fraction) for CC[C@H](C)[C@H]1O[C@]2(CC[C@@H]1C)C[C@@H]1C[C@@H](C/C=C(\C)[C@@H](O[C@H]3C[C@H](OC)[C@@H](O[C@H]4C[C@H](OC)[C@@H](O)[C@H](C)O4)[C@H](C)O3)[C@@H](C)/C=C/C=C3\CO[C@@H]4[C@H](O)C(C)=C[C@@H](C(=O)O1)[C@]34O)O2 .
RESULT: 0.122

---

Conditions: in n-propanol, 293.2 K
value-kind: solubility (mole fraction)

QUERY: Name the recorded solubility (mole fraction) for CC[C@H](C)[C@H]1O[C@]2(CC[C@@H]1C)C[C@@H]1C[C@@H](C/C=C(\C)[C@@H](O[C@H]3C[C@H](OC)[C@@H](O[C@H]4C[C@H](OC)[C@@H](O)[C@H](C)O4)[C@H](C)O3)[C@@H](C)/C=C/C=C3\CO[C@@H]4[C@H](O)C(C)=C[C@@H](C(=O)O1)[C@]34O)O2 .
RESULT: 0.089

---

Conditions: in isopropanol, 293.2 K
value-kind: solubility (mole fraction)
One number for each entry.

QUERY: Name the recorded solubility (mole fraction) for CC[C@H](C)[C@H]1O[C@]2(CC[C@@H]1C)C[C@@H]1C[C@@H](C/C=C(\C)[C@@H](O[C@H]3C[C@H](OC)[C@@H](O[C@H]4C[C@H](OC)[C@@H](O)[C@H](C)O4)[C@H](C)O3)[C@@H](C)/C=C/C=C3\CO[C@@H]4[C@H](O)C(C)=C[C@@H](C(=O)O1)[C@]34O)O2 .
RESULT: 0.0675

---

Conditions: in n-propanol, 303.2 K
value-kind: solubility (mole fraction)
Numbers only.

QUERY: Name the recorded solubility (mole fraction) for CC[C@H](C)[C@H]1O[C@]2(CC[C@@H]1C)C[C@@H]1C[C@@H](C/C=C(\C)[C@@H](O[C@H]3C[C@H](OC)[C@@H](O[C@H]4C[C@H](OC)[C@@H](O)[C@H](C)O4)[C@H](C)O3)[C@@H](C)/C=C/C=C3\CO[C@@H]4[C@H](O)C(C)=C[C@@H](C(=O)O1)[C@]34O)O2 .
RESULT: 0.115

---

Details: in water, 308.2 K
value-kind: solubility (mole fraction)
Answers are plain numbers.

QUERY: Name the recorded solubility (mole fraction) for CC[C@H](C)[C@H]1O[C@]2(CC[C@@H]1C)C[C@@H]1C[C@@H](C/C=C(\C)[C@@H](O[C@H]3C[C@H](OC)[C@@H](O[C@H]4C[C@H](OC)[C@@H](O)[C@H](C)O4)[C@H](C)O3)[C@@H](C)/C=C/C=C3\CO[C@@H]4[C@H](O)C(C)=C[C@@H](C(=O)O1)[C@]34O)O2 .
RESULT: 6.5e-06
